- run.description: endothelial E-selectin upregulation by compounds – imaging, HUVEC, cherry-picked samples, dose response (AID 977605);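 further: signal is the share of imaged cells scored positive for E-selectin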
- applied.conditions: HUVEC E-selectin immunostaining, at 19.5 µM (top of the series), percent of TNF-alpha response over vehicle
property.label: activation (%)
Give just the number in %; leave the unit off.

[[record]]
compound = "C[C@@H]1CN([C@H](C)CO)C(=O)c2cc(NS(=O)(=O)c3cccs3)ccc2O[C@H]1CN(C)S(C)(=O)=O"
quantitative_readout = -0.143


Request: Name the reported activation value associated with the compound C[C@@H]1CN([C@@H](C)CO)C(=O)c2cc(C3=CCCCC3)cnc2O[C@H]1CN(C)C(=O)NC1CCCC1
Response: -0.267

Request: What value of activation has been reported for the following compound? O=C(CCCn1c(=O)c2ccccc2n(CC(=O)N2CCN(c3ccccc3)CC2)c1=O)NCc1ccco1
Response: -0.084

Request: What activation value was documented for this compound, CC(=O)c1ccc(N2CCN(c3ccnc4cc(Cl)ccc34)CC2)cc1 ?
Response: 1.69

Request: What activation value was documented for this compound, O=C(O)CC1C(=O)NCCN1Cc1cccs1 (stereo unspecified) ?
Response: -0.112

Request: Need activation, item C[C@@H]1CN([C@H](C)CO)C(=O)c2cc(NS(=O)(=O)c3ccccc3)ccc2O[C@@H]1CN(C)C(=O)NC1CCCCC1
Response: -0.139

* * *

- run.description: endothelial E-selectin upregulation by compounds – imaging, HUVEC, cherry-picked samples, dose response (AID 977605);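 further: signal is the share of imaged cells scored positive for E-selectin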
- applied.conditions: HUVEC E-selectin immunostaining, at 19.5 µM (top of the series), percent of TNF-alpha response over vehicle
property.label: activation (%)
API: value field is a number in %; no unit string.

[[record]]
structure_smiles_string = "C[C@@H]1CN([C@H](C)CO)C(=O)c2cc(NC(=O)CCCCCC(=O)Nc3ccccc3N)ccc2O[C@@H]1CN(C)C(=O)Nc1ccc2c(c1)OCO2"
property_label = "activation"
measurement_unit = "%"
quantitative_readout = -0.103


Request: Looking for the measured activation of C[C@H]1CN([C@@H](C)CO)C(=O)c2cc(NC(=O)C3CCCCC3)ccc2O[C@H]1CN(C)Cc1ccc(C(=O)Nc2ccccc2N)cc1 , can you help?
Response: 4.92

Request: Any idea what its activation is? The compound is c1ccc(Nc2nnc(-c3cccnc3)s2)cc1
Response: 0.863

Request: Fill in the blank: the reported activation of COc1ccc(S(=O)(=O)N(C)C[C@H]2Oc3ccc(NC(=O)c4ccncc4)cc3C(=O)N([C@H](C)CO)C[C@@H]2C)cc1 is ____.
Response: -0.104

Request: Which activation reading was recorded for the compound O=C(CCC(=O)N1CCOCC1)Nc1ccc(Cl)c(Cl)c1 ?
Response: 0.295

Request: I'd like to know its activation. The compound in question is Cc1noc(C)c1COc1ccc(C(=O)N2CCC(C)CC2)cc1
Response: 8.94

Request: Quick one: activation of CCCC#Cc1ccc2c(c1)O[C@@H](CN(C)CCC)[C@@H](C)CN([C@@H](C)CO)S2(=O)=O ?
Response: -0.152

Request: What activation value was documented for this compound, C[C@@H]1CN([C@H](C)CO)C(=O)Cc2cc(NC(=O)Cc3ccccc3)ccc2O[C@H]1CN(C)S(C)(=O)=O ?
Response: -0.135
